Values compiled from PubChem BioAssay (NCI).

- Protocol Details: NCI Yeast Anticancer Drug Screen. Data for the bub3 strain (AID 167)
- Conditions: S. cerevisiae bub3 mutant strain, at 50.0 µM, active compounds read high
Compounds without any hit were thinned out: in the full panel of roughly 79,000, 15% have a hit.
Entries get a class label from measured growth inhibition. See ranges: lower bin (below 70%), middle bin (70% to below 90%), upper bin (90% or more)

Request: Into which bin does this molecule go? O=C1C(=O)c2cccc([N+](=O)[O-])c2-c2ccccc21
Response: upper bin

Request: Into which bin does this molecule go? Nc1ccc(/C=C/c2ccc3cccnc3c2)cc1
Response: upper bin

Request: Into which bin does this molecule go? CCCCCCCCCCCCCCCCCCN(C)C(COC)COP(=O)([O-])OCC[N+](C)(C)C (stereo not given)
Response: middle bin

Request: Into which bin does this molecule go? CCC(/C=C/c1ccccc1)=N\Nc1ccc(Cl)cc1
Response: upper bin

Request: Into which bin does this molecule go? O=c1cccccc1[O-].O=c1cccccc1[O-].O=c1cccccc1[O-].[Eu+3]
Response: upper bin

###

Form field: growth inhibition (one value per entry).
- Protocol Details: NCI Yeast Anticancer Drug Screen. Data for the sgs1 mgt1 strain (AID 161);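 note: 0% = growth of cultures given vehicle only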
- Conditions: S. cerevisiae sgs1 mgt1 strain, at 50.0 µM, active compounds read high
The panel holds about 79,000 compounds, 15% with a hit somewhere; the sample as a whole holds those more often.
Report the value in % with no unit label.

>>> print(df.to_string())
                                   compound      readout_label  unit_symbol  numeric_result
0               CC(C)(Br)C(=O)/C=C/c1ccccc1  growth inhibition            %            91.3
1   CN(C)CC(CN(C)C)C(=O)/C=C/c1ccc(Cl)cc1Cl  growth inhibition            %            48.7
2  O=NC1c2cccc3cccc(c23)C1N=O (stereo unspecified)  growth inhibition            %            97.3

Request: What value of measured growth inhibition is listed for COc1cc(C2C3=C(COC3=O)Oc3cc4c(cc32)OCO4)cc(OC)c1O (stereo unspecified) ?
Response: 36.7

Request: What value of measured growth inhibition is listed for O=C1C2=C(c3ccccc31)C(c1ccccc1)N1C(=O)CSC1=N2 (stereo unspecified) ?
Response: 59.6

Request: What value of measured growth inhibition is listed for COC(=O)C(=O)CC(=O)c1cccc(OC)c1 ?
Response: 0.4

###

- Protocol Details: NCI Yeast Anticancer Drug Screen. Data for the rad14 strain (AID 159);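 note: 0% = growth of vehicle-treated control cultures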
- Conditions: S. cerevisiae rad14 strain growth inhibition; at 33.0 µM; active compounds read high
About 79,000 compounds went through this panel and 15% of them were active in at least one assay; those are over-represented in the sample as a whole.
Readout Label: growth inhibition (%)
Report the value in % with no unit label.

Some entries whose results are on file:
Molecule	growth inhibition / %
N#[N+]c1c([O-])c2ccccc2c2ccccc12	80
O=C(Oc1ccc([N+](=O)[O-])cc1)c1ccc([N+](=O)[O-])cc1	19
COc1c2c(c3c(c1CCC(=O)O)OC(C)(C)C=C3)OC(C)(C)C=C2	53
COC1/C=C\C=C(/C)C(=O)NC2=CC(=O)C(=O)C(=C2O)CC(C)CC(OC)C(O)C(C)/C=C(\C)C1OC(N)=O (stereo unspecified)	95
CCC(=O)Nc1ccc(N=NN(C)C)cc1	23
CC1(c2ccccc2)O[C@@H]2C[C@H]3[C@@H]4CCC5=CC(=O)C=C[C@]5(C)[C@@]4(F)[C@@H](O)C[C@]3(C)[C@]2(C(=O)CO)O1 (stereo partly specified)	75
C=COC(=O)N[C@H]1CCc2cc(OC)c(OC)c(OC)c2-c2ccc(SC)c(=O)cc21	19
O=C(NO)c1coc2ccccc2c1=O	-2
CN(C)CC(CN(C)C)C(=O)/C=C/c1ccc(Cl)cc1Cl	99
c1ccc([P+](CCN2Cc3ccccc3C2)(c2ccccc2)c2ccccc2)cc1	53

Request: What value of measured growth inhibition is listed for O=C(Cc1ccccc1)NN1C(=O)C(Cl)C1c1cc(Br)cc(Br)c1O (stereo unspecified) ?
Response: 93

###

- Protocol Details: NCI Yeast Anticancer Drug Screen. Data for the CLN2oe strain (AID 163);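 note: 0% = growth of vehicle-only control cultures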
- Conditions: S. cerevisiae CLN2oe strain, at 3.7 µM
- Experimental: Growth inhibition of yeast strains with defined genetic alterations is measured as a screen for potential anti-cancer activity. Selected strains with alterations in DNA damage repair or cell cycle control were exposed to compounds and growth inhibition was measured relative to vehicle treated controls. The strain used in this assay is CLN2oe
This is part of a sample that, as a whole, favours compounds with a hit. Of some 79,000 tested, about 15% had one in any assay. The source made the active and inactive calls. No stated cut-off is given here; in the data, active means growth inhibition above about 70%; inactive means the rest.
Write down the outcome that applies. Available outcomes: active, inactive

A selection of reference data follows.
Compound	Assigned Label
COc1ccc2cc(C(C)C(=O)N3CCOC3=O)ccc2c1 (stereo not drawn)	inactive
C=CC(C)(C)N1C(=O)C(C(C)=O)=C(O)C1Cc1c[nH]c2ccccc12 (stereo not drawn)	inactive

Request: Record lookup: outcome of this test for OC(Cc1cccc2ccccc12)CN1CCC(c2ccccc2)CC1 (stereo not drawn) ?
Response: active

Request: Record lookup: outcome of this test for O=S(=O)(c1cccc(C(F)(F)F)c1)N1c2ccccc2-n2cccc2C1c1cccnc1 (stereo not drawn) ?
Response: inactive

Request: Record lookup: outcome of this test for O=C(CN(c1ccccc1)c1ccccc1)n1nnc2ccccc21 ?
Response: inactive

Request: Record lookup: outcome of this test for c1ccc2c(c1)N=C1CCCC3CCCC123 (stereo not drawn) ?
Response: inactive

Request: Record lookup: outcome of this test for CC(C)(CN1CCCCC1)C(=O)CC(SCCS(=O)(=O)O)c1ccccc1 (stereo not drawn) ?
Response: inactive

Request: Record lookup: outcome of this test for CCOC(=O)C(Cc1c2ccccc2cc2ccccc12)(NC(C)=O)C(=O)OCC ?
Response: inactive

Request: Record lookup: outcome of this test for O=C(O)CNC(c1ccccc1)(c1ccccc1)c1ccccc1 ?
Response: inactive

Request: Record lookup: outcome of this test for O=C(C(Cl)=C(N1CCCCC1)N1CCCCC1)C(Cl)Cl ?
Response: inactive

Request: Record lookup: outcome of this test for O=[N+]([O-])c1ccc2[nH]c3c(-c4ccccc4)nccc3c2c1 ?
Response: inactive

Request: Record lookup: outcome of this test for CC(C(=O)N1C(=O)N(C(=O)C(C)C(O)c2ccccc2)C2CCCCC21)C(O)c1ccccc1 (stereo not drawn) ?
Response: inactive

Request: Record lookup: outcome of this test for CC12CCC(CC(=O)/C1=C(/Br)I)C2(C)C (stereo not drawn) ?
Response: inactive

Request: Record lookup: outcome of this test for O=C(Nn1c(-c2ccccc2)nc2ccccc2c1=O)c1ccc(CS)cc1 ?
Response: inactive

Request: Record lookup: outcome of this test for C/C(=N\Sc1ccccc1)c1ccccc1O ?
Response: inactive

Request: Record lookup: outcome of this test for CC(=O)Oc1ccc2c(c1)Cc1cc(N3C(=O)C=CC3=O)ccc1-2 ?
Response: inactive

Request: Record lookup: outcome of this test for O=C(O)c1c2ccc(Cl)cc2nc2[nH]c(=O)[nH]c(=O)c12 ?
Response: inactive

Request: Record lookup: outcome of this test for NC(N)=NC(N)=Nc1ccccc1 (tested in a mixture with another compound) ?
Response: inactive

Request: Record lookup: outcome of this test for CNC(=S)N/N=C(/C)CCC/C(C)=N/NC(=S)NC ?
Response: active

Request: Record lookup: outcome of this test for CCOC(=S)SSSC(=S)OCC ?
Response: inactive

Request: Record lookup: outcome of this test for CCC(C)COC(=O)Nc1cccc(Cl)c1 (stereo not drawn) ?
Response: inactive

Request: Record lookup: outcome of this test for CCOC(=O)CC1(C)/C(=N\Nc2ccc([N+](=O)[O-])cc2[N+](=O)[O-])CCC2C1CCC1(C)C(C(C)CCCC(C)C)CCC21 (stereo not drawn) ?
Response: inactive

###

Form field: growth inhibition (one value per entry).
- Protocol Details: NCI Yeast Anticancer Drug Screen. Data for the mgt1 strain (AID 153)
- Conditions: S. cerevisiae mgt1 mutant growth inhibition; at 3.7 µM; active compounds read high
Compounds without any hit were thinned out: in the full panel of roughly 79,000, 15% have a hit. Activity calls are given as the source filed them. Rule as the data show it: active = growth inhibition above about 70%; inactive = the rest.

                                   compound      readout_label           result
0  CCCCS/C(=C(/C#N)C(N)=O)c1cc2c([nH]1)CCCC2  growth inhibition  -21% (inactive)
1    O=C1c2ccccc2C(=O)c2sc(Nc3ccccc3Cl)nc21  growth inhibition   19% (inactive)
2  COC(=O)C(Cl)(Cl)N=Nc1c(Cl)cc(Cl)c(C)c1Cl  growth inhibition   20% (inactive)
3        CCOC(=O)/C(=C/c1cccc(Cl)c1)N(CC)CC  growth inhibition    9% (inactive)
4  NC(CS)C(=O)NCCNc1ccc(NCCNC(=O)C(N)CS)c2c1C(=O)c1c(O)ccc(O)c1C2=O (stereo unspecified)  growth inhibition   18% (inactive)

Request: What value of measured growth inhibition is listed for COc1ccccc1NC(=O)c1ccc(Cl)cc1 ?
Response: -1% (inactive)

Request: What value of measured growth inhibition is listed for Nc1ccc(S(=O)(=O)Nc2nc3c(c(=O)[nH]2)CCCC3)cc1 ?
Response: 0% (inactive)

Request: What value of measured growth inhibition is listed for CNC(=O)OCc1c2ccncc2c(C)c2c1[nH]c1ccccc12 ?
Response: 21% (inactive)

Request: What value of measured growth inhibition is listed for N#CCC(=O)N/N=C(\c1ccccc1)C(c1ccccc1)C1(O)C(=O)Nc2c(Cl)ccc(Cl)c21 (stereo unspecified) ?
Response: -1% (inactive)

Request: What value of measured growth inhibition is listed for O=S(=O)(NNc1ccccc1)c1ccccc1 ?
Response: -1% (inactive)

Request: What value of measured growth inhibition is listed for CN(C)CC(CN(C)C)C(=O)/C=C/c1ccc(Cl)cc1Cl ?
Response: -2% (inactive)
